# measurement.target: yeast (Y. lipolytica) complex I (Yarrowia lipolytica, UniProt Q9B6E8+Q9UUT7+Q9UUU1)
# Sequence (Q9B6E8 1-341): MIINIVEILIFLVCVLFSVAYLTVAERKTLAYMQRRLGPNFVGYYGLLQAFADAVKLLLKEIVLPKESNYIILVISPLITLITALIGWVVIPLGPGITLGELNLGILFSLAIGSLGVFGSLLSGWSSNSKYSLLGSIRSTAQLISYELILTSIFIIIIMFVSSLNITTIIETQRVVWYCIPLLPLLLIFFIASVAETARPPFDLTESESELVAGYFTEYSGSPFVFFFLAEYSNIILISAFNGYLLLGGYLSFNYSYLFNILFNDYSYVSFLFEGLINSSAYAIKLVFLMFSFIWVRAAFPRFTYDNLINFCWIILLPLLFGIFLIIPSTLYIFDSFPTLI
# Sequence (Q9UUU1 22-466): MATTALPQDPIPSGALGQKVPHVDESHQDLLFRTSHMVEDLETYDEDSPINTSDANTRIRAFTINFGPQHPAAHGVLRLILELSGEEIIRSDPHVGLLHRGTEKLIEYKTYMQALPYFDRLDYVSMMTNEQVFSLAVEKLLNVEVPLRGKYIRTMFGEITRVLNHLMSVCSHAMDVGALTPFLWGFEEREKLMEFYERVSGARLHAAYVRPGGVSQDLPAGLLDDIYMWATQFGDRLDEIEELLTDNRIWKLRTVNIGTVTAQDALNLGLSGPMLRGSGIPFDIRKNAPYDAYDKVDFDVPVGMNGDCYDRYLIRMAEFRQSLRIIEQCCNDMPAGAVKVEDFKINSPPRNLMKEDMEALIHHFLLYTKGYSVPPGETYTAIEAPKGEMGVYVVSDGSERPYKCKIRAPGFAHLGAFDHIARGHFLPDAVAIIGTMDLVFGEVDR
# Sequence (Q9UUT7 28-210): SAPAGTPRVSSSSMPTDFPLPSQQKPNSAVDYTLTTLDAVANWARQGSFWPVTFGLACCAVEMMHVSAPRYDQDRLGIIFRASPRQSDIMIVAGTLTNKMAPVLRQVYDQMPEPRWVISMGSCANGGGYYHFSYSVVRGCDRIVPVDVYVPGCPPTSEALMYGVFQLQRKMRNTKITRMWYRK
# assay.method.text: NADH:decylubiquinone oxidoreduction by purified Y. lipolytica complex I
pIC50: −log10 of the molar value.
Quick reference for pIC50 among some compounds

>  <smiles.structure>
Cc1nc(-c2nc(-c3ccc(OC(F)(F)F)cc3)no2)nn1Cc1cccc(N2CCC(S(C)(=O)=O)CC2)c1

>  <pIC50>
5.20

$$$$
>  <smiles.structure>
CS(=O)(=O)C1CCN(c2cccc(Cn3cc(-c4nc(-c5ccc(OC(F)(F)F)cc5)no4)ccc3=O)c2)CC1

>  <pIC50>
6.45

$$$$

====

We begin with a simple list: items and their reported IC50.
# measurement.target: complex I in bovine SMPs (Bos taurus, UniProt P03887+P17694+P42026)
# Construct: Complex I from bovine heart were prepared; from tissue; host or cells: bovine heart mitochondria
# assay.method.text: Forward electron transport (NADH oxidation) in bovine heart submitochondrial particles
# Assay type: biochemical
# condition.set: NADH oxidation rate, ± SE
measurement.label: IC50 (nM)

>  <compound>
CS(=O)(=O)C1CCN(c2cccc(Cn3cc(-c4nc(-c5ccc(OC(F)(F)F)cc5)no4)ccc3=O)c2)CC1 [IACS-2858]

>  <measurement>
6.4

$$$$
>  <compound>
Cc1nc(-c2nc(-c3ccc(OC(F)(F)F)cc3)no2)nn1Cc1cccc(N2CCC(S(C)(=O)=O)CC2)c1 [IACS-010759]

>  <measurement>
325

$$$$
